Target: 5-hydroxytryptamine receptor 2A (Homo sapiens, UniProt P28223)
Sequence (P28223 whole entry): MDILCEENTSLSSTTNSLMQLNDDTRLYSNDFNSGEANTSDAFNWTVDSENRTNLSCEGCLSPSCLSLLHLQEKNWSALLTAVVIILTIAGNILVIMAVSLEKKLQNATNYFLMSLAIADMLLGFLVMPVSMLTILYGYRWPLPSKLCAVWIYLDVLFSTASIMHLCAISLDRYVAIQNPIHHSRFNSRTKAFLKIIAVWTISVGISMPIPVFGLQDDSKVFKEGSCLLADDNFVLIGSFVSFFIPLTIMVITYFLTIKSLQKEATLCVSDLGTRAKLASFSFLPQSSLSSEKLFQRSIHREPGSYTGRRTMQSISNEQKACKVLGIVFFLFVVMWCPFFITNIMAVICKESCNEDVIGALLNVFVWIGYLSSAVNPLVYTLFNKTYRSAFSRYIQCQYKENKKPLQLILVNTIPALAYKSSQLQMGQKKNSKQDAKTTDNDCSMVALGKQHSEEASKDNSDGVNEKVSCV
pKi: −log10 of the molar value.
PROPERTY: pKi

• Nc1cc(F)ccc1C(=O)CCCN1CC[C@H]2[C@@H](C1)c1cccc3c1N2CCS3 = 9.52

(I) Nc1cc(F)ccc1C(=O)CCCN1CC[C@H]2[C@@H](C1)c1cccc3c1N2CCCS3 (stereo in doubt; (+)-6)
(II) Nc1cc(F)ccc1C(=O)CCCN1CC[C@H]2[C@@H](C1)c1cccc3c1N2CCCS3 (stereo in doubt; 6)
(III) Nc1ccccc1C(=O)CCCN1CC[C@@H]2[C@H](C1)c1cccc3c1N2CCCC3
Input: Let's sort these by pKi, smallest first. Go ahead? Lab note: final answer is the ordered label list.
Output: III, II, I

* * *

Biological target: Dopamine D2 receptor and serotonin 2a receptor (Homo sapiens) (UniProt P14416+P28223)
Sequence (P14416 whole entry, looked up): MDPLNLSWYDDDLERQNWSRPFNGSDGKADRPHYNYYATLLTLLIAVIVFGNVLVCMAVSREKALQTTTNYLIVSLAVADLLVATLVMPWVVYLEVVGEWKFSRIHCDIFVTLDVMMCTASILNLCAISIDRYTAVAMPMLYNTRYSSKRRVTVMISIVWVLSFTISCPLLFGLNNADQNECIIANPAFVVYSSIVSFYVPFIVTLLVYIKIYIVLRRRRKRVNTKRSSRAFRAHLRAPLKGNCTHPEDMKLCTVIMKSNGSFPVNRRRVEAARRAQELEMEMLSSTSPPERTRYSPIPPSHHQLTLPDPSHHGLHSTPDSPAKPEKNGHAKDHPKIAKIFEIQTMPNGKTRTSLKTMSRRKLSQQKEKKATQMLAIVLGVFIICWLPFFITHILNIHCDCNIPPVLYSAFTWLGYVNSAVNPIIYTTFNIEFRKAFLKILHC
Sequence (P28223 whole entry, looked up): as the sequence (P28223 whole entry) above
Experiment: Selectivity ratio for inhibition of dopamine D2 receptor to that of 5-HT2A receptor.
Assay type: protein assay
PROPERTY: Ratio

• CS(=O)(=O)Nc1cc(F)ccc1C(=O)CCCN1CC[C@H]2[C@@H](C1)c1cccc3c1N2CCCS3 = 2.4

(I) Nc1c(F)cccc1C(=O)CCCN1CC[C@H]2[C@@H](C1)c1cccc3c1N2CCCS3
(II) Nc1ccccc1C(=O)CCCN1CC[C@H]2[C@@H](C1)c1cccc3c1N2CCC3
(III) Nc1cc(F)ccc1C(=O)CCCN1CC[C@@H]2[C@H](C1)c1cccc3c1N2CCCS3
(IV) Nc1cc(Cl)ccc1C(=O)CCCN1CC[C@H]2[C@@H](C1)c1cccc3c1N2CCCS3
Input: Order the 4 compounds from highest to lowest Ratio. Lab note: final answer is the ordered label list.
Output: II, I, III, IV

* * *

Target: Dopamine D2 receptor and serotonin 2a receptor (Homo sapiens) (UniProt P14416+P28223)
Assay: Selectivity ratio for inhibition of dopamine D2 receptor to that of 5-HT2A receptor.
Format: protein assay
PROPERTY: Ratio

Some compounds with recorded Ratio:
* CCOC(=O)Nc1cc(F)ccc1C(=O)CCCN1CC[C@H]2[C@@H](C1)c1cccc3c1N2CCCS3 | 0.29
* Nc1cc(F)ccc1C(=O)CCCN1CC[C@@H]2[C@H](C1)c1cccc3c1N2CCCC3 | 21
* Nc1cc(F)ccc1C(=O)CCCN1CC[C@H]2[C@@H](C1)c1cccc3c1N2CCC3 | 10.2
* CCNC(=O)Nc1cc(F)ccc1C(=O)CCCN1CC[C@H]2[C@@H](C1)c1cccc3c1N2CCCS3 | 2.3
* Nc1cc(F)ccc1C(=O)CCCN1CC[C@@H]2[C@H](C1)c1cccc3c1N2CCS3 | 9.3
* Nc1cc(Br)ccc1C(=O)CCCN1CC[C@H]2[C@@H](C1)c1cccc3c1N2CCCS3 | 0.06
* O=C(CCCN1CC[C@H]2[C@@H](C1)c1cccc3c1N2CCCS3)c1ccc(F)cc1 | 3.5
* Nc1ccccc1C(=O)CCCN1CC[C@@H]2[C@H](C1)c1cccc3c1N2CCCC3 | 6.5
* Nc1cc(F)ccc1C(=O)CCCN1CC[C@H]2[C@@H](C1)c1cccc3c1N2CCCS3 (stereo in doubt; (+)-6) | 6.8
* Nc1ccccc1C(=O)CCCN1CC[C@H]2[C@@H](C1)c1cccc3c1N2CCCC3 | 16

(P) Nc1ccccc1C(=O)CCCN1CC[C@H]2[C@@H](C1)c1cccc3c1N2CCO3
(Q) CNc1ccccc1C(=O)CCCN1CC[C@H]2[C@@H](C1)c1cccc3c1N2CCCS3
Input: Determine, for P and Q , which has the greater value of Ratio. // output: label of the selected item
Output: P

This collection of values is drawn from ChEMBL document CHEMBL1144968.
